- assay.method.text: In vivo pharmacokinetic study of oral HCPT in rats with or without verapamil pre-treatment
- run.conditions: male, Sprague-Dawley, rat, plasma, 50 mg/kg, HCPT 50 mg/kg intragastric/oral, control (no verapamil), n = 6, Mean ± S.D.
observable: Tmax (h)
Quick note: give the figure in h, leave out the unit.

The value of Tmax measured for the compound CC[C@@]1(O)C(=O)OCc2c1cc1n(c2=O)Cc2cc3cc(O)ccc3nc2-1 [HCPT, Hydroxycamptothecin] turned out to be 1.12

---

- assay.method.text: In vivo pharmacokinetic study of oral HCPT in rats with or without verapamil pre-treatment
- run.conditions: male, Sprague-Dawley, rat, plasma, 50 mg/kg, HCPT 50 mg/kg intragastric/oral, control (no verapamil), n = 6, Mean ± S.D., read-out: CLz/F (oral clearance) (converted)
observable: CL/F

The value of CL/F measured for the compound CC[C@@]1(O)C(=O)OCc2c1cc1n(c2=O)Cc2cc3cc(O)ccc3nc2-1 [HCPT, Hydroxycamptothecin] turned out to be 1060 mL/min/kg
